protein stability index listing for selected variants.
B1: FAM50A (parent)
chain: KKREKQREQMEQMKQRIAEENIMK

- Variants of: B1
- assay.overview: protein stability index of a GFP-peptide fusion (GPS, HEK-293T) (PSI 1-6); higher = more stable;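 also: lentivirally expressed fusions sorted by FACS into six bins by GFP to DsRed ratio, PSI derived from sequencing read proportions per bin multiplied by bin number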
- condition.parameters: c terminus: a fixed tail appended
experimental.readout: protein stability index

* K1N | 5.42
* I22N | 5.12
* M10G | 5.19
* R3K | 5.06
* R16S | 5.52
* E19W | 3.66
* E8A | 4.96
* Q15C | 4.19
* M13Y | 3.98
* R16Y | 5.15
* M23A | 4.63
* M13K | 4.77
* K1M | 4.67
* E11R | 4.49
* M23Y | 4.75
* I17A | 5.39
* Q12V | 5.07
* K1Y | 4.95
* K2L | 3.67
* E20C | 4.53
* R3C | 4.91
* A18V | 4.69
* Q12M | 4.27
* A18E | 4.62
* M13N | 5.21
* E11S | 4.41
* M10Y | 4.61
* Q9H | 4.68
* E19R | 4.98
* K5D | 4.75
* E11D | 5.03
* R7Y | 4.76
* E8P | 4.89
* I17W | 4.25
* I17V | 4.87
* E11T | 4.57
* E20M | 3.79
* Q6D | 5.06
